# MEASUREMENT_TARGET: Pantothenate synthetase (Mycobacterium tuberculosis (strain ATCC 25618 / H37Rv))
# ASSAY_TEXT: Coupled enzyme confirmation of inhibitors against recombinant Mtb PanC (AID 375);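 further: 0% = full reaction with vehicle and 100% = no enzyme background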
# ASSAY_CONDITIONS: coupled enzyme assay; at 10 µM, hits give high values
Here, each record is paired with measured inhibition data.
The answer is to be given in %; state only the numeric part.

Answered examples (3):
CCN1CCN(C(=O)C2CC(c3ccc(F)cc3)=NO2)CC1 (centres undefined) | 0
CC(=O)NC1CC2CCCC(C1)N2CC(=O)Nc1ccccc1 (centres undefined) | 3
Cc1cc2c(c(=O)n1C)C(Cc1ccccc1)C(C#N)=C(N)O2 (centres undefined) | 3

Kindly consider the entry below.
So what inhibition did CCN(C1CCCCC1)S(=O)(=O)c1ccc(S(=O)(=O)N2CCN(CCC#N)CC2)cc1 get with Pantothenate synthetase (Mycobacterium tuberculosis (strain ATCC 25618 / H37Rv))? 0

====

# ASSAY_TEXT: H69AR cell proliferation blockers – human, duplicate replicates, primary screen (AID 580);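 further: 100% = mean luminescence of untreated wells and 0% = no signal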
# ASSAY_CONDITIONS: H69AR lung tumor cells viability, ATP luminescence, 72 h; at 10 µM; hits give low values
viability: recorded values
API: value field is a number in %; no unit string.

Past entries and their recorded results:
O=c1c2ccccc2nc(CSc2ncnc3nc[nH]c23)n1-c1ccccc1 | 80.9
COP(=O)(OC)C(O)C(Cl)(Cl)Cl (centres undefined) | 82.6
COc1ccccc1-n1c(O)c(C=NCc2ccc3c(c2)OCO3)c(=O)[nH]c1=O | 91.8

Turning to the following compound.
Form field: reported viability of CN1C(=O)N(C)C(=O)C2(Cc3ccccc3N3CCOCC32)C1=O (centres undefined) 102

====

# ASSAY_TEXT: viability of PTEN-null HCT116 cells – cell-based, HCT116 clonal line, CellTiter-Glo, pilot screen (AID 824);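 further: 0% = 20 µM Hyamine control and 100% = vehicle cell control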
# ASSAY_CONDITIONS: HCT116 PTEN-deleted viability, 60 h, at 10 µM, hits give low values
Inconclusive results are not listed.
API: label(entry) gives y if the entry's viability is strictly smaller than 90%; on equality or larger values it gives n.

These recorded examples may help you get a feel for the data.
COc1ccc(OC)c(N2C(=O)NC(=O)C(CCc3ccncc3)(CCc3ccncc3)C2=O)c1 | n
O=c1cccc2n1CC1CC2CN(C(c2ccccc2)c2sc3ncnn3c2O)C1 (stereo not drawn) | n
O=P(OCC(F)(F)C(F)F)(N1CCCCC1)N1CCCCC1 | n
CCOc1ccccc1C1SCC(=O)Nc2c1c(=O)[nH]n2C(CC)CC (stereo not drawn) | n
c1cncc(C2CCCCN2Cc2ccc3c(c2)OCO3)c1 (stereo not drawn) | n

Decide: viability of Cc1ccc2c(c1)C1CN(C)CCC1N2C(=O)Cn1nnc(-c2ccccc2F)n1 (stereo not drawn) strictly below 90%? y

====

# MEASUREMENT_TARGET: Pantothenate synthetase (Mycobacterium tuberculosis (strain ATCC 25618 / H37Rv)) (UniProt P9WIL5)
# Sequence (P9WIL5 whole entry, looked up): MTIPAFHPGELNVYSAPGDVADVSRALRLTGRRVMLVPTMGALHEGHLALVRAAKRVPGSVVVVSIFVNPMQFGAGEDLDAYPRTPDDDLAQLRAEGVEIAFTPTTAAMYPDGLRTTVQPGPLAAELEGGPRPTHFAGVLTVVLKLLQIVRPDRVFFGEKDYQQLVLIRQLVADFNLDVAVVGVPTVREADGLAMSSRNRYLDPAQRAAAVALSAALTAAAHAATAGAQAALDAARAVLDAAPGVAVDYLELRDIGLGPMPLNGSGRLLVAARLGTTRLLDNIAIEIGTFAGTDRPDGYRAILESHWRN
# ASSAY_TEXT: Coupled enzyme confirmation of inhibitors against recombinant Mtb PanC (AID 375);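 further: 0% = full reaction with vehicle and 100% = no enzyme background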
# ASSAY_CONDITIONS: coupled enzyme assay; at 10 µM, hits give high values
MEASURED_ENDPOINT: inhibition (%)
State just the number; it will be interpreted in %.

Before answering, review these 2 worked examples.
CC(C)=CCCC(C)N(C=O)C(C)CCC=C(C)C (stereo not drawn) | 3
CCCCN1C(=O)NC(=O)C2(Cc3c(nc4c(C)cccn4c3=O)N3CCc4ccccc4C32)C1=O (stereo not drawn) | 3

Now take the following compound into account.
Endpoint output: inhibition of O=C(CN1CCN(c2ccc(F)cc2)CC1)OCc1ccccc1 . Value? 3

====

Recorded inhibition by entry
# MEASUREMENT_TARGET: Pantothenate synthetase (Mycobacterium tuberculosis (strain ATCC 25618 / H37Rv)) (UniProt P9WIL5)
# ASSAY_TEXT: Coupled enzyme confirmation of inhibitors against recombinant Mtb PanC (AID 375);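 further: 0% = full reaction with vehicle and 100% = no enzyme background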
# ASSAY_CONDITIONS: coupled enzyme assay; at 10 µM, hits give high values
Could you give me the number in %? Just the number is fine.

CCOC(=O)c1cc(C)n(CCCN2CCOCC2)c1C | 0

Give the measured inhibition of COc1ccccc1N1CCN(CCCNC(=O)Nc2ccccc2)CC1 . 10

Recorded inhibition for COc1nc(C)ccc1-c1noc(-c2ccncc2)n1 , please? 2

Record request: inhibition value, item CCCCCCNC(=O)c1c(N)n(/N=C/c2ccco2)c2nc3ccccc3nc12 5

Returns the measured inhibition for the input compound. Input: CCC(C)(C(=O)NC1CCCC1)N(Cc1cccs1)C(C)=O (centres undefined) 2

What value of measured inhibition is listed for c1ccc(Nc2ccccc2Nc2ccccn2)nc1 ? 0

Which measured inhibition value corresponds to COC(=O)Cn1cc(C(=O)c2cccs2)c2ccccc21 ? 0

Given the compound COc1ccc(C(NC(=O)c2ccco2)c2ccc(OC)c(OC)c2)cc1 (centres undefined) , what is its reported inhibition? 0

State the recorded inhibition for this entry: O=C1NC(c2ccccc2)(C(F)(F)F)SC2=CCCCCN12 (centres undefined) 0

Quick one: inhibition for CCN(CC)CCOC(=O)C1(C2CCCCC2)CCCCC1 ? 0

====

# MEASUREMENT_TARGET: Pantothenate synthetase (Mycobacterium tuberculosis (strain ATCC 25618 / H37Rv)) (UniProt P9WIL5)
# ASSAY_TEXT: Coupled enzyme confirmation of inhibitors against recombinant Mtb PanC (AID 375);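 further: 0% = full reaction with vehicle and 100% = no enzyme background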
# ASSAY_CONDITIONS: coupled enzyme assay; at 10 µM, hits give high values
This listing pairs compounds with measured inhibition.
Use % as the unit, but write only the number.

Cc1c(NC(=O)c2coc(=O)c(Br)c2)c(=O)n(-c2ccccc2)n1C | 7
COCCn1cc(C(=O)NCCCN2CCC(C)CC2)c2c3ccccc3n(C)c2c1=O | 2
Nc1ccc(S(=O)(=O)Nc2ccccn2)cc1 | 0
CCOC(=O)N1CCC(NC(=O)CSCc2nc(-c3cccc(OC)c3)oc2C)CC1 | 0
COc1cccc(Nc2cc(C)nc3ccccc23)c1 | 1
O=C(O)C1CCCCC1C(=O)NCCc1ccccc1 (configuration not stated) | 0

Let us examine a further case.
So what's the measured inhibition for this one? COCC(=O)Nc1sc2c(c1C(=O)OC)C(C(=O)OC)CC2 (configuration not stated) 0

====

Entries and their inhibition values follow.
# MEASUREMENT_TARGET: Pantothenate synthetase (Mycobacterium tuberculosis (strain ATCC 25618 / H37Rv))
# ASSAY_TEXT: Coupled enzyme confirmation of inhibitors against recombinant Mtb PanC (AID 375);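 further: 0% = full reaction with vehicle and 100% = no enzyme background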
# ASSAY_CONDITIONS: coupled enzyme assay; at 10 µM, hits give high values
All answers are understood in %, so give the number only.

N#C/C(=C(/O)CN1CCOCC1)c1nc2ccccc2s1 | 0

# input for lookup
What measured inhibition goes with Cc1cc(N2C(=O)C3CCCN3C2c2cccc(Cl)c2)no1 (configuration not stated) ? 4

====

# MEASUREMENT_TARGET: Pantothenate synthetase (Mycobacterium tuberculosis (strain ATCC 25618 / H37Rv))
# ASSAY_TEXT: Coupled enzyme confirmation of inhibitors against recombinant Mtb PanC (AID 375);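 further: 0% = full reaction with vehicle and 100% = no enzyme background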
# ASSAY_CONDITIONS: coupled enzyme assay; at 10 µM, hits give high values
Label MET for high-side inhibition (at or above 1%) and NOT MET for low-side inhibition (below it).

CCOC(=O)CNC(=O)c1c(C)nn(-c2ccccc2)c1Cl | NOT MET

Confirm if inhibition reported for the compound Cc1cc(NCCN(C)C)n2nc(-c3cccs3)cc2n1 is 1% or above. NOT MET

State whether the measured inhibition reaches 1%, counting equality as reaching it, for CCn1c2ccccc2c2cc(NC(=O)Cc3ccc(S(=O)(=O)N4CCOCC4)s3)ccc21 NOT MET

Quick check: does O=C(CCN1C(=O)C2C3C=CC(C3)C2C1=O)N1CCN(c2ccccc2Cl)CC1 (stereo not drawn) have inhibition greater than or equal to 1%? MET

====

# ASSAY_TEXT: H69AR cell proliferation blockers – human, duplicate replicates, primary screen (AID 580);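 further: 100% = mean luminescence of untreated wells and 0% = no signal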
# ASSAY_CONDITIONS: H69AR lung tumor cells viability, ATP luminescence, 72 h; at 10 µM; hits give low values
Rule: measured viability below 90% gets Satisfied; anything equal to or greater than 90% gets Not satisfied.

Cc1ccc(C2SCC(=O)Nc3c2c(=O)[nH]n3C2CCOC(C)(C)C2)cc1 (stereo not given) | Not satisfied

Hello, is viability of the following compound strictly smaller than 90%? CC(C)(C)C(O)C(Oc1ccc(Cl)cc1)n1cncn1 (stereo not given) Satisfied

Does the reported viability of Cc1ccccc1NC1=NCCCS1 stay below 90%? Not satisfied

Would you kindly verify if viability of CC(C)OCCCNC(=O)c1c(N)n(Cc2cccs2)c2nc3ccccc3nc12 is strictly less than 90%? Satisfied

====

# MEASUREMENT_TARGET: Pantothenate synthetase (Mycobacterium tuberculosis (strain ATCC 25618 / H37Rv))
# ASSAY_TEXT: Coupled enzyme confirmation of inhibitors against recombinant Mtb PanC (AID 375);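 further: 0% = full reaction with vehicle and 100% = no enzyme background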
# ASSAY_CONDITIONS: coupled enzyme assay; at 10 µM, hits give high values
MEASURED_ENDPOINT: inhibition (%)
Express the result in % but write the number alone.

Would you please look over these solved cases?
COc1cccc(-c2nnn(CC(=O)O)n2)c1 | 0
Cc1ccc(O)c(C(=O)c2cc(C#N)c(=O)n(CC3CCCO3)c2)c1 (stereo not drawn) | 8

Any idea what its inhibition is? The compound is COc1nnc(-c2ccc(C)c(S(=O)(=O)NCCO)c2)c2ccccc12 3
